System: Mus musculus
Experiment: Antinociceptive effect in icv dosed CD1 mouse assessed as increase in tail-flick latency period by tail flick test
Assay type: functional
AD50 for assorted compounds

Study these solved cases before continuing.
{"Compound": "CN(C(=O)[C@@H]1CCCN1C(=O)[C@@H](N)Cc1ccc(O)cc1)[C@@H](Cc1ccccc1)C(=O)N[C@@H](Cc1ccccc1)C(=O)NCCO.O=C(O)C(F)(F)F", "Property measured": "AD50", "Reading": "3.03 nmol"}
{"Compound": "CN(C(=O)[C@H](Cc1ccccc1)N(C)C(=O)[C@@H]1CCCN1C(=O)[C@@H](N)Cc1ccc(O)cc1)[C@@H](Cc1ccccc1)C(=O)NCCO.O=C(O)C(F)(F)F", "Property measured": "AD50", "Reading": "2.65 nmol"}

Task: For the compound NC(=O)[C@H](Cc1ccccc1)NC(=O)[C@H](Cc1ccccc1)NC(=O)[C@@H]1CCCN1C(=O)[C@@H](N)Cc1ccc(O)cc1 [ENDOMORPHIN 2] , give its measured AD50 value.
Result: 1.49 nmol

Task: For the compound N[C@@H](Cc1ccc(O)cc1)C(=O)N1CCC[C@H]1C(=O)N[C@@H](Cc1ccccc1)C(=O)N[C@@H](Cc1ccccc1)C(=O)NCCO.O=C(O)C(F)(F)F , give its measured AD50 value.
Result: 3.44 nmol

Task: For the compound CN(C(=O)[C@H](Cc1ccccc1)NC(=O)[C@@H]1CCCN1C(=O)[C@@H](N)Cc1ccc(O)cc1)[C@@H](Cc1ccccc1)C(=O)NCCO.O=C(O)C(F)(F)F , give its measured AD50 value.
Result: 5.56 nmol

----------
Target: Mu-type opioid receptor (Rattus norvegicus)
Sequence (P33535 whole entry): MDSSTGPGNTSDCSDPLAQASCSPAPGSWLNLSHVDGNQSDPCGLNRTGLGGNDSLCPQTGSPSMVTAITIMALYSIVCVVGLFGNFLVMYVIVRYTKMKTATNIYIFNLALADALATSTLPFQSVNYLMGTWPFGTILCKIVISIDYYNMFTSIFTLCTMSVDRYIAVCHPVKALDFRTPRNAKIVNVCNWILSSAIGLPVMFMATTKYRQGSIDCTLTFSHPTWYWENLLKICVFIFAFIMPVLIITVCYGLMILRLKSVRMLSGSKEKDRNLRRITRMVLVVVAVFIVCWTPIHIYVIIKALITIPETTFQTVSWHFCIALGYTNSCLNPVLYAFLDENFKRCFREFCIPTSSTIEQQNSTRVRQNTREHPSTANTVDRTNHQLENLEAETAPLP
Property measured: Ki (nM)
The figure you give is taken to be in nM; do not add the unit.

{"Smiles code": "CN(C(=O)[C@@H]1CCCN1C(=O)[C@@H](N)Cc1ccc(O)cc1)[C@@H](Cc1ccccc1)C(=O)N[C@@H](Cc1ccccc1)C(=O)NCCO.O=C(O)C(F)(F)F", "Ki / nM": 155}
{"Smiles code": "CN(C(=O)[C@H](Cc1ccccc1)NC(=O)[C@@H]1CCCN1C(=O)[C@@H](N)Cc1ccc(O)cc1)[C@@H](Cc1ccccc1)C(=O)NCCO.O=C(O)C(F)(F)F", "Ki / nM": 224}
{"Smiles code": "CN(C(=O)[C@H](Cc1ccccc1)N(C)C(=O)[C@@H]1CCCN1C(=O)[C@@H](N)Cc1ccc(O)cc1)[C@@H](Cc1ccccc1)C(=O)NCCO.O=C(O)C(F)(F)F", "Ki / nM": 34}

Task: For the molecule N[C@@H](Cc1ccc(O)cc1)C(=O)N1CCC[C@H]1C(=O)N[C@@H](Cc1ccccc1)C(=O)N[C@@H](Cc1ccccc1)C(=O)NCCO.O=C(O)C(F)(F)F , give its measured Ki value.
Result: 90

----------
Molecular target: Delta-type opioid receptor (Rattus norvegicus, UniProt P33533)
Sequence (P33533 whole entry): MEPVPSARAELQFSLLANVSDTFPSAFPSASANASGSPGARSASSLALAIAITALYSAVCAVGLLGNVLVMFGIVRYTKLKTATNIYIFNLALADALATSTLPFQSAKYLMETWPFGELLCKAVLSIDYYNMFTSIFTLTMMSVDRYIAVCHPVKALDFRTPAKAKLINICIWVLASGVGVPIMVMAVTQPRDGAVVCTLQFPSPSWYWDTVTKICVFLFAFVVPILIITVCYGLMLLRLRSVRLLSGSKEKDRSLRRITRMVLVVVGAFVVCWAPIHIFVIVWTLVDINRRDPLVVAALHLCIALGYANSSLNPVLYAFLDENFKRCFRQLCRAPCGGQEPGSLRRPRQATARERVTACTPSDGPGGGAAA
Experiment: Displacement of [3H]Ile5,6deltorphin-2 from delta opioid receptor in Wistar rat brain membranes by liquid scintillation counting
Ki for assorted molecules
The figure you give is taken to be in µM; do not add the unit.

Study these solved cases before continuing.
{"Smiles code": "CN(C(=O)[C@H](Cc1ccccc1)N(C)C(=O)[C@@H]1CCCN1C(=O)[C@@H](N)Cc1ccc(O)cc1)[C@@H](Cc1ccccc1)C(=O)NCCO.O=C(O)C(F)(F)F", "Ki / µM": 6.4}
{"Smiles code": "N[C@@H](Cc1ccc(O)cc1)C(=O)N1CCC[C@H]1C(=O)N[C@@H](Cc1ccccc1)C(=O)N[C@@H](Cc1ccccc1)C(=O)NCCO.O=C(O)C(F)(F)F", "Ki / µM": 0.799}

# input for lookup
Task: For the molecule CN(C(=O)[C@H](Cc1ccccc1)NC(=O)[C@@H]1CCCN1C(=O)[C@@H](N)Cc1ccc(O)cc1)[C@@H](Cc1ccccc1)C(=O)NCCO.O=C(O)C(F)(F)F , give its measured Ki value.
Result: 3.86
